Property: Kd; scope: individual binders
assay target: T1, cyno CD3e (Macaca fascicularis (cynomolgus monkey), UniProt Q95LI5)
T1 construct: not described; also called cynomolgus CD3ε; cynomolgus CD3
T1 sequence (CD3 epsilon, looked up): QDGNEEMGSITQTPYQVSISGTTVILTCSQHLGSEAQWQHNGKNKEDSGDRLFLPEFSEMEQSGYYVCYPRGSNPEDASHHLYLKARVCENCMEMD
measurement description: kinetic Kd determination of the expressed scFv, method not named

{"binder": "Anti-CD3, clone 6A2 (scFv, Expressed in Expi293 from the pcDNA3.4 His6 vector) scFv: EVQLVESGGGLVQPGGSLKLSCAASGFMFNKYAMNWVRQAPGKGLEWVARIRSKSNNYATYYADSVKDRFTISRDDSKNTAYLQMNNLKTEDTAVYYCVRHGNFGNSYISYWATWGQGTLVTVSSGGGGSGGGGSGGGGSQTVVTQEPSLTVSPGGTVTLTCGSSFGAVTSGNYPNWVQQKPGQAPRGLIGGTKLLAPGTPARFSGSLLGGKAALTLSGVQPEDEAEYYCVLWYSNSWVFGGGTKLTVLHHHHHH", "Kd / µM": 0.0049}
{"binder": "Anti-CD3, clone 2G5 (scFv, Expressed in Expi293 from the pcDNA3.4 His6 vector) scFv: EVQLVESGGGLVQPGGSLKLSCAASGFTFNKYALNWVRQAPGKGLEWVARIRSKYNNYATEYADSVKDRFTISRDDSKNTAYLQMNNLKTEDTAVYYCVRHGNFGNSPISYWAYWGQGTLVTVSSGGGGSGGGGSGGGGSQTVVTQEPSLTVSPGGTVTLTCGSSTGAVTSGNYPNWVQQKPGQAPRGLIGGTNFLAPGTPERFSGSLLGGKAALTLSGVQPEDEAEYYCVLWYSNRWAFGGGTKLTVLHHHHHH", "Kd / µM": 0.115}
{"binder": "Anti-CD3, clone 3F2 (scFv, Expressed in Expi293 from the pcDNA3.4 His6 vector) scFv: EVQLVESGGGLVQPGGSLKLSCAASGFTYNKYAMNWVRQAPGKGLEWVARIRSKYNNYATYYADEVKDRFTISRDDSKNTAYLQMNNLKTEDTAVYYCVRHGNFGNSPISYWAYWGQGTLVTVSSGGGGSGGGGSGGGGSQTVVTQEPSLTVSPGGTVTLTCGSSKGAVTSGNYPNWVQQKPGQAPRGLIGGTKELAPGTPARFSGSLLGGKAALTLSGVQPEDEAEYYCTLWYSNRWVFGGGTKLTVLHHHHHH", "Kd / µM": 0.0066}
{"binder": "Anti-CD3, clone 10E4 (scFv, Expressed in Expi293 from the pcDNA3.4 His6 vector) scFv: EVQLVESGGGLVQPGGSLKLSCAASGFTFNKYPMNWVRQAPGKGLEWVARIRSKYNNYATYYADSVKDRFTISRDDSKNTAYLQMNNLKNEDTAVYYCVRHGNFNNSYISYWAYWGQGTLVTVSSGGGGSGGGGSGGGGSQTVVTQEPSLTVSPGGTVTLTCGSSTGAVTKGNYPNWVQQKPGQAPRGLIGGTKMLAPGTPARFSGSLLGGKAALTLSGVQPEDEAEYYCALWYSNRWVFGGGTKLTVLHHHHHH", "Kd / µM": 0.0468}

// data source = patent US20240084009A1
